- Experimental details: Ratio of drug level in brain to plasma in CD1 mouse at 12.92 mg/kg, ip administered as single dose measured after 240 mins by LC/ESI-MS/MS analysis
- Type: ADME, organism-based
- Conditions used: brain and plasma, read-out: BPR
Endpoint: Kp at 4 h
Just the number, please.

Exercise: For the compound Cc1cccc(C)c1OCCOCCN[C@H](C)CO.Cl , what Kp at 4 h is on record?
Solution: 1.94

====

Property: Activity; scope: individual compounds
- Test system: Vibrio harveyi
- Experimental details: Mutagenicity in Vibrio harveyi BB7 assessed as number of colonies after 48 hrs (reference value: 13 to 14 no_unit)
- Type: ADME, organism-based
- Conditions used: in vivo
Number, no unit, nothing else.

>>> quantitative_readout("Cc1cccc(C)c1OCCOCCN[C@H](C)CO.Cl")
20
>>> quantitative_readout("Cc1cccc(OCCOCCN[C@H]2CC[C@H](O)CC2)c1C")
22
>>> quantitative_readout("Cc1cc(C)c(OCCOCCN[C@@H]2CCCC[C@H]2O)c(C)c1 (racemic)")
20
>>> quantitative_readout("Cc1cccc(C)c1OCCOCCN1CCC(O)CC1")
22
>>> quantitative_readout("Cc1cccc(C)c1OCCOCCNC(C)CO (stereo unspecified)")
24
>>> quantitative_readout("CC[C@H](CO)NCCOCCOc1c(C)cccc1C")
20

Exercise: Given Cc1cccc(C)c1OCCOCCN[C@@H](C)CO , state its recorded Activity.
Solution: 15

====

- Tested on: Rattus norvegicus
- Experimental details: Neurotoxicity in rat at 30 mg/kg, ip after 4 hrs by rotarod test
- Assay type: toxicity, organism-based
- Conditions used: in vivo
Endpoint: Activity

>>> result("Cc1cccc(OCCCN2CCCC(O)C2)c1C (centres undefined)")
"Non-toxic"
>>> result("Cc1cccc(C)c1OCCOCCN[C@@H](C)CO.Cl")
"Non-toxic"
>>> result("Cc1cccc(OCCCN2CCC(O)CC2)c1C")
"Non-toxic"
>>> result("Cc1cccc(C)c1OCCOCCN[C@@H](C)CO")
"Non-toxic"

====

- System: Mus musculus
- Experimental details: AUC (0 to infinity) in CD1 mouse plasma at 12.92 mg/kg, ip measured up to 240 mins by LC/ESI-MS/MS analysis
- Type: ADME, organism-based
- Parameters: dose 12.92 mg/kg, route intraperitoneal, time infinity
- Conditions used: in vivo, 4 h
Endpoint: AUC (µg·h/mL)
Respond numerically; units are µg·h/mL and should not be typed.

Exercise: Param item = Cc1cccc(C)c1OCCOCCN[C@H](C)CO.Cl ; retrieve measured AUC.
Solution: 0.903

====

- Experimental details: Ratio of drug level in brain to plasma in CD1 mouse at 12.92 mg/kg, ip administered as single dose measured after 60 mins by LC/ESI-MS/MS analysis
- Format: ADME, organism-based
- Conditions used: brain and plasma, read-out: BPR
Endpoint: Kp at 1 h

Exercise: // query Kp at 1 h value for entry Cc1cccc(C)c1OCCOCCN[C@H](C)CO.Cl
Solution: 1.91

====

- Experimental details: AUC (0 to infinity) in CD1 mouse brain at 1 mg/kg, iv measured up to 240 mins by LC/ESI-MS/MS analysis
- Type: ADME, organism-based
- Set-up: dose 1 mg/kg, route intravenous, time infinity
Endpoint: AUC(0-inf)

Exercise: # AUC(0-inf) lookup, item Cc1cccc(C)c1OCCOCCN[C@H](C)CO.Cl
Solution: 5150 ng·h/mL
